- target-or-system: BCRP (Homo sapiens)
- Construct: host or cells: MDCK-BCRP (Preadyport)
- Sequence (Q9UNQ0 1-655): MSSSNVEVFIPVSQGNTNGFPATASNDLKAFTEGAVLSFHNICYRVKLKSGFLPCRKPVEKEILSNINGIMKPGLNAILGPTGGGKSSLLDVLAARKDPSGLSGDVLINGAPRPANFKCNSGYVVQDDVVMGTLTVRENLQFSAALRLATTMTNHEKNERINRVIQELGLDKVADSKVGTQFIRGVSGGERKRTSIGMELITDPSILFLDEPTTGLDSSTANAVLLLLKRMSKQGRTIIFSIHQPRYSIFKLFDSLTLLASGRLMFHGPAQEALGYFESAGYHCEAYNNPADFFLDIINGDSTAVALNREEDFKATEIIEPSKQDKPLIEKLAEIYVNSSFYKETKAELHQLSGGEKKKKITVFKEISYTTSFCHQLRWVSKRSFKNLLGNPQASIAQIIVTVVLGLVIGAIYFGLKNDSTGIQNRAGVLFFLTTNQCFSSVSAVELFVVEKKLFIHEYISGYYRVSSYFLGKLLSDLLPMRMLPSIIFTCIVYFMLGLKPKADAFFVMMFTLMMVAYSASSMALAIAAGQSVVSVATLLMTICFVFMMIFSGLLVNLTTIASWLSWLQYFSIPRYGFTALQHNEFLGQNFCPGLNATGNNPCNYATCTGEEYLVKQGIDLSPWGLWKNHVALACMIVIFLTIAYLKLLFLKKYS
- method-description: BCRP efflux substrate assay in MDCK-BCRP
- Type: in vitro ADME
- experimental-setup: dog, pH 7.4; MDCK-BCRP; read-out: Efflux ratio B/A
reported-endpoint: efflux ratio at 1 h, 5 µM

Req: efflux ratio at 1 h, 5 µM for N[C@H]1CC[C@H](Nc2nc(NCc3ccc(-c4ccccn4)cc3)n3ncc(Br)c3n2)CC1 [Compound 2384] ?
Resp: 9.24
